Values were extracted from ChEMBL document CHEMBL3991601.

- Tested On: Tyrosine-protein kinase FRK (Homo sapiens); further: in the data inactive means no Kd found up to 30 µM
- Sequence (P42685 whole entry): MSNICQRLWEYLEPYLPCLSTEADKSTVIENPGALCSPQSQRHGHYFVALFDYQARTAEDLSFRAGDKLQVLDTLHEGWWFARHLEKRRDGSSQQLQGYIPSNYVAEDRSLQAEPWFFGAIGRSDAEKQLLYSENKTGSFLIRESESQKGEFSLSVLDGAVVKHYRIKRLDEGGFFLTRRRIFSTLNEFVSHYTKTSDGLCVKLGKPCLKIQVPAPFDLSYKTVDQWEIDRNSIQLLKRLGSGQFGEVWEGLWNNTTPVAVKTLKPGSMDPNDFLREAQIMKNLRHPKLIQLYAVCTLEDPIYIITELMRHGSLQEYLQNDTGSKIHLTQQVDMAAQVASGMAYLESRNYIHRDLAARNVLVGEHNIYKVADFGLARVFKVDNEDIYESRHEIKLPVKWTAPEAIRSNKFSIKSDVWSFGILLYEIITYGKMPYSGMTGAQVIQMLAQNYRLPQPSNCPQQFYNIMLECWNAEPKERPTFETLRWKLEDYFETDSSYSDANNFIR
Activity calls are given as the source filed them.
Form entry, call: pick from active, inactive

// known answers, use as guide
>>> df
                                   molecule                                 tested_on  assigned_category
0  CC1(COc2ccc3c(c2)ncn3-c2ccc3cccc(N4CCC(N)CC4)c3n2)COC1 [CRENOLANIB]  Tyrosine-protein kinase FRK (Homo sapiens)           inactive
1  Cn1c(=O)c(F)c(Nc2ccc(I)cc2F)c2c(=O)n(C[C@@H](O)CO)cnc21 [TAK-733]  Tyrosine-protein kinase FRK (Homo sapiens)           inactive
2  O=S(=O)(c1cccc2c(O)nccc12)N1CCCNCC1 [HYDROXYFASUDIL]  Tyrosine-protein kinase FRK (Homo sapiens)           inactive

Prompt line: Test call for this molecule, please: C#Cc1cccc(Nc2ncnc3cc4c(cc23)OCCOCCOCCO4)c1 [ICOTINIB]
Response line: inactive

Prompt line: Repeat for the following molecule: COc1cc2ncnc(Nc3ccc(O)cc3)c2cc1OC [WHI-P131]
Response line: inactive

Prompt line: Repeat for the following molecule: NC(=O)c1ccc(N(C(N)=O)c2c(F)cccc2F)nc1-c1ccc(F)cc1F [VX-702]
Response line: inactive

Prompt line: Repeat for the following molecule: c1cc(OCCN2CCCCC2)cc(-c2n[nH]c3ccc(-c4nc[nH]n4)cc23)c1 [CC-401]
Response line: inactive

Prompt line: Repeat for the following molecule: Cc1c(Cn2c(C)nc3c(C(=O)O)cc(N4CCOCC4)cc32)cccc1C(F)(F)F [GSK-2636771]
Response line: inactive

Prompt line: Repeat for the following molecule: O=S(=O)(c1cccc2cnccc12)N1CCCNCC1 [FASUDIL]
Response line: inactive

====

Consider molecules characterized by their Kd with Beta-adrenergic receptor kinase 1 (Homo sapiens).
Sequence (P25098 whole entry): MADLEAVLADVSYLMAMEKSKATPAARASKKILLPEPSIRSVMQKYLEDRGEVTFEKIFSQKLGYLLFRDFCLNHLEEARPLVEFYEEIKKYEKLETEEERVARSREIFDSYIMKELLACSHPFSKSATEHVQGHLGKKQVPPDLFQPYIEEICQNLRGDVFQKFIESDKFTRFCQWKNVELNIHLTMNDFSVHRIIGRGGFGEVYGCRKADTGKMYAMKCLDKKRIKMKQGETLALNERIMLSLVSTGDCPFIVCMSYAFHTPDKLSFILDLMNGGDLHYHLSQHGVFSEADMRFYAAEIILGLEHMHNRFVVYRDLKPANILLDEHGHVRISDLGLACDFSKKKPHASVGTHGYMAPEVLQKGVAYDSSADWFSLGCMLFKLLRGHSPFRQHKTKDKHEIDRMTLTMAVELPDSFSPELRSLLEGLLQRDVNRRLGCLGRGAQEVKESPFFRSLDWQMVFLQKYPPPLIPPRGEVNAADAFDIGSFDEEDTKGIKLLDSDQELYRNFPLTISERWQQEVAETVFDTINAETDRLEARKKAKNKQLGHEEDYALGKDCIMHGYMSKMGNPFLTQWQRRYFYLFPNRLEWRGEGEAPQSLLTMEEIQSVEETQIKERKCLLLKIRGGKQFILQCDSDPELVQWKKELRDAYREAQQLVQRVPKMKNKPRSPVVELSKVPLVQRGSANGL
Active and inactive are the calls of the source.

These solved cases illustrate the format of a correct answer.
>>> print(df.to_string())
                                   molecule            measured
0  CN(C)C/C=C/C(=O)Nc1cc2c(Nc3ccc(F)c(Cl)c3)ncnc2cc1O[C@H]1CCOC1  > 30 µM (inactive)
1  CCc1cc2c(cc1N1CCC(N3CCOCC3)CC1)C(C)(C)c1[nH]c3cc(C#N)ccc3c1C2=O  > 30 µM (inactive)
2  O=C(O)c1ccc2c(c1)nc(Nc1cccc(Cl)c1)c1ccncc12  > 30 µM (inactive)
3  CN1CCN(c2nc(C3=C(c4c[nH]c5ccccc45)C(=O)NC3=O)c3ccccc3n2)CC1  > 30 µM (inactive)
4  Cc1ccc(C(=O)Nc2ccc(Oc3cc4cnn(C)c4cc3-c3cn[nH]c3)c(F)c2)c(=O)n1-c1ccc(F)cc1  > 30 µM (inactive)

Prompt line: Request the reported Kd associated with COc1cccc(Nc2ncnn3ccc(CN4CC[C@@H](N)[C@H](O)C4)c23)c1
Response line: > 30 µM (inactive)

Prompt line: Repeat for the following molecule: CC1(COc2ccc3c(c2)ncn3-c2ccc3cccc(N4CCC(N)CC4)c3n2)COC1
Response line: > 30 µM (inactive)

Prompt line: Repeat for the following molecule: Cc1cc(Nc2nc(N[C@@H](C)c3ncc(F)cn3)ncc2Cl)n[nH]1
Response line: > 30 µM (inactive)

Prompt line: Repeat for the following molecule: C=CCn1c(=O)c2cnc(Nc3ccc(N4CCN(C)CC4)cc3)nc2n1-c1cccc(C(C)(C)O)n1
Response line: > 30 µM (inactive)

====

- Tested On: Uncharacterized protein FLJ45252 (Homo sapiens); further: in the data inactive means no Kd found up to 30 µM
- Sequence (Q6ZSR9 whole entry): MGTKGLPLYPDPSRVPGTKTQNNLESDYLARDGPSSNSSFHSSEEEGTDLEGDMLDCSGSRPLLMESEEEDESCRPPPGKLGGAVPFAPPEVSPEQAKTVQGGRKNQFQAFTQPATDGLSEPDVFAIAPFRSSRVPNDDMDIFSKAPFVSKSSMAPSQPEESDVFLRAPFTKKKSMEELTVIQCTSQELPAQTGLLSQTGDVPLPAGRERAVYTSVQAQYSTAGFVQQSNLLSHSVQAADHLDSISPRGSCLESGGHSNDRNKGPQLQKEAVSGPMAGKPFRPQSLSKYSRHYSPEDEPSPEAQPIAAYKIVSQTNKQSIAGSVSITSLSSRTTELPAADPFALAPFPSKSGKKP
- Condition Summary: read-out: Kd apparent; k-562, colo 205, sk-n-be(2) and mv-4-11; further: in the data inactive means no Kd found up to 30 µM
The source made the active and inactive calls.
Form entry, call: pick from active, inactive

// known answers, use as guide
                                   compound  assigned_category
0  CCN(CCCOc1ccc2c(Nc3cc(CC(=O)Nc4cccc(F)c4)n[nH]3)ncnc2c1)CCOP(=O)(O)O [BARASERTIB]           inactive
1  C[C@@]1(C(=O)Nc2ccc(F)nc2)CCCN1c1nc(Nc2cc(C3CC3)n[nH]2)c2cccn2n1 [BMS-754807]           inactive

Prompt line: Test call for this compound, please: Cn1cnc2c(F)c(Nc3ccc(Br)cc3Cl)c(C(=O)NOCCO)cc21 [SELUMETINIB]
Response line: active

Prompt line: Repeat for the following compound: COc1cc2ncnc(Nc3ccc(F)c(Cl)c3)c2cc1NC(=O)/C=C/CN1CCCCC1 [DACOMITINIB ANHYDROUS]
Response line: inactive

Prompt line: Repeat for the following compound: c1cc(OCCN2CCCCC2)cc(-c2n[nH]c3ccc(-c4nc[nH]n4)cc23)c1 [CC-401]
Response line: active

====

- Tested On: UniProt Q05397
- Sequence (Q05397 whole entry): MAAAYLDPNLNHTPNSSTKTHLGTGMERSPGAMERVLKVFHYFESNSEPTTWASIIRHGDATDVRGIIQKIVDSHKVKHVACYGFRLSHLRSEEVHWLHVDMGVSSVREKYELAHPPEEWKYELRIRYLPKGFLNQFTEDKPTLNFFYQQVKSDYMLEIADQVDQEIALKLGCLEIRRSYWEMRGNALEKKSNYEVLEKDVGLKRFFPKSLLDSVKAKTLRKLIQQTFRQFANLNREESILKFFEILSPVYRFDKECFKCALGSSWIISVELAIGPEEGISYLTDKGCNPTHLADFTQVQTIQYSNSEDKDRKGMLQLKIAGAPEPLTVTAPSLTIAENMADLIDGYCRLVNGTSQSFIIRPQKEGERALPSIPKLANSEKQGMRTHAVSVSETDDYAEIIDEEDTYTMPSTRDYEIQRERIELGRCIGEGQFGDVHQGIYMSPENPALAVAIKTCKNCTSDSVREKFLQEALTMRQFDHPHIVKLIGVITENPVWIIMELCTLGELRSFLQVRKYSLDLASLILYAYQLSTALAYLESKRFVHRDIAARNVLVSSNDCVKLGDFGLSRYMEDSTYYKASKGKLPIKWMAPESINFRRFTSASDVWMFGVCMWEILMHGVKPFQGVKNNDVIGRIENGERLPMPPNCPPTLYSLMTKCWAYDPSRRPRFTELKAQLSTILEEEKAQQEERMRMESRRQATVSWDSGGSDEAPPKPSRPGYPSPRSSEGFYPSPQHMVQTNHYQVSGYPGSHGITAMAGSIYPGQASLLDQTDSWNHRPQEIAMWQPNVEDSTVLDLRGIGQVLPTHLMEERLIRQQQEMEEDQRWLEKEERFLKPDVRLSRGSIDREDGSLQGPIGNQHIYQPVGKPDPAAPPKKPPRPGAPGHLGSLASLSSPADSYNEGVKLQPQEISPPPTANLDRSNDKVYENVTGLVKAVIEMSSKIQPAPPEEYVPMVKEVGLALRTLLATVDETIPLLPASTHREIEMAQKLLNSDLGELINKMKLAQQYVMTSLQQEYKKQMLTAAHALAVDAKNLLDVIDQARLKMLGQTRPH
Active and inactive are the calls of the source.
Form entry, call: pick from y = active, n = inactive

// known answers, use as guide
>>> print(df.to_string())
                                   compound  assigned_category
0  COc1ccc2c(OCc3nnc4ccc(-c5ccccc5)nn34)ccnc2c1                  n
1  Cc1cc(C(=O)Nc2cc(Oc3ccc4nc(NC(=O)C5CC5)cn4n3)ccc2C)n(C)n1                  n
2  CNC(=O)c1cc(COc2nnc(Nc3ccc(Cl)cc3)c3ccoc23)ccn1                  n
3          COc1cc2ncnc(Nc3ccc(O)cc3)c2cc1OC                  n
4  S=C(NCc1ccc2c(c1)OCO2)N1CCN(c2ncnc3c2oc2ccccc23)CC1                  n

Prompt line: Test call for this compound, please: Cc1c(Cn2c(C)nc3c(C(=O)O)cc(N4CCOCC4)cc32)cccc1C(F)(F)F
Response line: n

Prompt line: Repeat for the following compound: Cn1cc(-c2[nH]c3cc(NC(=O)[C@H](N)C4CCCCC4)cc4c3c2C=NNC4=O)cn1
Response line: n

Prompt line: Repeat for the following compound: NC[C@@](O)(c1ccc(Cl)cc1)c1ccc(-c2cn[nH]c2)cc1
Response line: n

====

Activity calls are given as the source filed them.
Consider molecules characterized by their Kd with Isoleucine--tRNA ligase, mitochondrial (Homo sapiens).
Sequence (Q9NSE4 whole entry): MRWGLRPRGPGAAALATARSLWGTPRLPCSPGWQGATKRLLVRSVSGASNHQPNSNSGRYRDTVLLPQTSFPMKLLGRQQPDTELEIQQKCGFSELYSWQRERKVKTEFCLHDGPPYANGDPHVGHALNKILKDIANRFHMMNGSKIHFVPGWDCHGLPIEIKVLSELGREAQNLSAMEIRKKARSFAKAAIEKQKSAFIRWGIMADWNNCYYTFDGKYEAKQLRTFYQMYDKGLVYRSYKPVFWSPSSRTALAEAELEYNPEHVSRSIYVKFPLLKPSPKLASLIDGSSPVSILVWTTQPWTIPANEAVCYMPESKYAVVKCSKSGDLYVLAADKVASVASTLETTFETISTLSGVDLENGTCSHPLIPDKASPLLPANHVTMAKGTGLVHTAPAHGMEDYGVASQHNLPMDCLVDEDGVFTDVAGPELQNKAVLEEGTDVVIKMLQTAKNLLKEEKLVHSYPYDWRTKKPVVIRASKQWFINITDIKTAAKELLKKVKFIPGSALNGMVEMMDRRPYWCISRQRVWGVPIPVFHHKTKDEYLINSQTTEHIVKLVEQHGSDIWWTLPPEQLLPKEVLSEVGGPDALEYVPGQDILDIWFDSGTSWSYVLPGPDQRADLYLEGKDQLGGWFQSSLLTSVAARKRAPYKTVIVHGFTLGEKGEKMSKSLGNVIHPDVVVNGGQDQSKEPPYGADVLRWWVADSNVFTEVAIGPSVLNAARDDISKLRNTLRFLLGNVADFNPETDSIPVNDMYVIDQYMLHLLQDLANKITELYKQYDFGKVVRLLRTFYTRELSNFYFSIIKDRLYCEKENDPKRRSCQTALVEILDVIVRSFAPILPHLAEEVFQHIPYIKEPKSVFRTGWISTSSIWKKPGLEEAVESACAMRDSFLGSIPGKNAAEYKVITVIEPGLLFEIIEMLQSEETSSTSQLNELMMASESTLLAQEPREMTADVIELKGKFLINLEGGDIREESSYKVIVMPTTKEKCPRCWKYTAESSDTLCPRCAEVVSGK

These solved cases illustrate the format of a correct answer.
>>> df
                               query_smiles                                 tested_on            measured
0  COc1cc(F)c(F)c(Nc2ccc(I)cc2F)c1NS(=O)(=O)C1(C[C@H](O)CO)CC1  Isoleucine--tRNA ligase, mitochondrial (Homo sapiens)  > 30 µM (inactive)
1  C=CC(=O)Nc1cccc(Nc2nc(Nc3ccc(N4CCN(C(C)=O)CC4)cc3OC)ncc2C(F)(F)F)c1  Isoleucine--tRNA ligase, mitochondrial (Homo sapiens)  > 30 µM (inactive)

The record that follows has no Kd shown yet.
Prompt line: Request the reported Kd associated with Cn1cnc2c(F)c(Nc3ccc(Br)cc3Cl)c(C(=O)NOCCO)cc21
Response line: > 30 µM (inactive)

====

- Tested On: UniProt P20340
- Sequence (P20340 whole entry): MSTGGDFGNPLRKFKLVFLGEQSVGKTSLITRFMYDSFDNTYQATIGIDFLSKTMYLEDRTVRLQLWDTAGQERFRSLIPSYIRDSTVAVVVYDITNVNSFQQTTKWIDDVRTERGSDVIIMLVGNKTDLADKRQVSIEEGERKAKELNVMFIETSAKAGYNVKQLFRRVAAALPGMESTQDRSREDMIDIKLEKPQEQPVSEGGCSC
The source made the active and inactive calls.
Property: Kd

These solved cases illustrate the format of a correct answer.
>>> df
                                   compound       tested_on  property            measured
0  Cn1c(=O)c(F)c(Nc2ccc(I)cc2F)c2c(=O)n(C[C@@H](O)CO)cnc21  UniProt P20340        Kd  > 30 µM (inactive)
1          COc1cc2ncnc(Nc3ccc(O)cc3)c2cc1OC  UniProt P20340        Kd  > 30 µM (inactive)
2  COc1cc2ncnc3c2cc1OCCCCCN(C)Cc1ccc(Br)cc1N3  UniProt P20340        Kd  > 30 µM (inactive)
3  O=S(=O)(c1cccc2c(O)nccc12)N1CCCNCC1 [HYDROXYFASUDIL]  UniProt P20340        Kd  > 30 µM (inactive)

The record that follows has no Kd shown yet.
Prompt line: Request the reported Kd associated with CCN(CCCOc1ccc2c(Nc3cc(CC(=O)Nc4cccc(F)c4)n[nH]3)ncnc2c1)CCOP(=O)(O)O
Response line: 0.033 µM
